We begin with a simple list: items and their reported INHIBITION.
# System: Plasmodium berghei
# experimental details: Screen against P. berghei liver stage (PbLuc), transformed with Luciferase, at 10uM
# Format: functional, HepG2
# study conditions: tested at 10 uM
Among all 69,000 compounds or so, about 8,600 (12%) showed an effect of 50% or more. This is one part of a sample in which strong results are shown more often than they occur.

>  <compound>
CCOc1cc(C)nc(N2CCN(C(C)c3nc(C)no3)CC2)n1 (centres undefined)

>  <test target>
Plasmodium berghei

>  <INHIBITION, %>
18.7

$$$$
>  <compound>
c1ccc2c(Cc3nnc([C@H]4CCN(C5CCCCC5)C4)o3)c[nH]c2c1

>  <test target>
Plasmodium berghei

>  <INHIBITION, %>
8.67

$$$$
>  <compound>
c1ccc2c(Cc3nnc([C@H]4CCN(C5CCOCC5)C4)o3)c[nH]c2c1

>  <test target>
Plasmodium berghei

>  <INHIBITION, %>
56.1

$$$$
>  <compound>
c1ccc2c(Cc3nnc([C@H]4CCN(CC5CC5)C4)o3)c[nH]c2c1

>  <test target>
Plasmodium berghei

>  <INHIBITION, %>
5.96

$$$$

* * *

# Test system: Plasmodium berghei
# experimental details: Screen against P. berghei liver stage (PbLuc), transformed with Luciferase, at 10uM
# Type: functional, HepG2
# study conditions: tested at 10 uM
Out of some 69,000 compounds screened, about 8,600 (12%) showed an effect of 50% or more. The entries come from a sample that favours strong results as a whole.
We begin with a simple list: items and their reported INHIBITION.

>  <compound>
CNc1nc(CNC(=O)Nc2cccc(CC(F)(F)F)c2)cs1

>  <INHIBITION [%]>
7.5

$$$$
>  <compound>
Cc1[nH]c(=O)[nH]c(=O)c1CN1CCCC(CCc2ccc(F)c(F)c2)C1 (centres undefined)

>  <INHIBITION [%]>
4.48

$$$$
>  <compound>
COCCN1C(=O)[C@@H]2CC[C@H]1CN(Cc1nnc(-c3ccccc3)o1)C2

>  <INHIBITION [%]>
-24.5

$$$$
>  <compound>
Cc1noc([C@@H]2C[C@H]3OCC[C@H]3N(S(=O)(=O)N(C)C)C2)n1

>  <INHIBITION [%]>
-13

$$$$
>  <compound>
N#Cc1cccc(S(=O)(=O)N2CCCCC2CCN2CCCC2)c1 (centres undefined)

>  <INHIBITION [%]>
51.3

$$$$
>  <compound>
COCCCC1CCCCN1S(=O)(=O)c1cccc(C#N)c1 (centres undefined)

>  <INHIBITION [%]>
-41.8

$$$$
>  <compound>
Cn1ccc(C(=O)N2CCCC2c2cc(CO)[nH]n2)n1 (centres undefined)

>  <INHIBITION [%]>
14.385

$$$$
>  <compound>
CCOc1ccc(C2CCCN2C(=O)NCCn2ccnc2)cc1 (centres undefined)

>  <INHIBITION [%]>
8.85

$$$$
>  <compound>
CCNC(=O)CN1CCC(OCC2CCCO2)CC1 (centres undefined)

>  <INHIBITION [%]>
68.8

$$$$
>  <compound>
COCCN1CC2(CCCN(Cc3cc(=O)c(OC)co3)C2)CCC1=O (centres undefined)

>  <INHIBITION [%]>
23.9

$$$$
>  <compound>
O=C(c1ccccn1)N1CCC2(CNS(=O)(=O)c3cnccc3O2)C1 (centres undefined)

>  <INHIBITION [%]>
17.6

$$$$
>  <compound>
O=C(c1cscn1)N1CCC2(CN(Cc3nccs3)C2)C1

>  <INHIBITION [%]>
15.9

$$$$
>  <compound>
O=C(NCCn1ccnc1)N1CCN(Cc2ccco2)CC1

>  <INHIBITION [%]>
-37.7

$$$$
>  <compound>
CCCc1nnc(NC(=O)N2CCCC2c2ccncc2)s1 (centres undefined)

>  <INHIBITION [%]>
59.2

$$$$
>  <compound>
CC(C)NC1CCc2[nH]c(=O)ccc2C1 (centres undefined)

>  <INHIBITION [%]>
86.2

$$$$
>  <compound>
CN(CC(=O)N1CCCC1Cn1cccn1)Cc1ccccc1 (centres undefined)

>  <INHIBITION [%]>
48.2

$$$$
>  <compound>
N#Cc1cccc(S(=O)(=O)N2CCCCC2CCN2CCCC2=O)c1 (centres undefined)

>  <INHIBITION [%]>
20.1

$$$$
>  <compound>
Cc1[nH]c(=O)[nH]c(=O)c1CN1CCCC(CCc2ccccc2)C1 (centres undefined)

>  <INHIBITION [%]>
-38.2

$$$$
>  <compound>
COc1ccc(-c2nc3c([nH]2)CCNC3C(=O)O)c2ccccc12 (centres undefined)

>  <INHIBITION [%]>
55.4

$$$$
>  <compound>
Cn1ccc(C(=O)N2CCCC2c2cc[nH]n2)n1 (centres undefined)

>  <INHIBITION [%]>
21.925

$$$$
>  <compound>
COc1coc(CN2CCCC3(CCC(=O)N(C4CC4)C3)C2)cc1=O (centres undefined)

>  <INHIBITION [%]>
53.6

$$$$
>  <compound>
COc1ccc(CN2CCCC(Cn3nc(C)nc3C)C2)cc1F (centres undefined)

>  <INHIBITION [%]>
-15.8

$$$$
>  <compound>
O=C1O[C@@H]2CN(c3ccccn3)C[C@@H]2N1CCCc1ccc(F)cc1

>  <INHIBITION [%]>
86.7

$$$$
>  <compound>
CN1C(=O)CCCC12CCCN(C(=O)c1ccc3c(c1)OCO3)C2 (centres undefined)

>  <INHIBITION [%]>
-36.8

$$$$
>  <compound>
CC(CC(=O)NCCCn1cccn1)c1cccnc1 (centres undefined)

>  <INHIBITION [%]>
15.7

$$$$
>  <compound>
O=C(c1cccnc1)N1CCC2(CNS(=O)(=O)c3cnccc3O2)C1 (centres undefined)

>  <INHIBITION [%]>
37.5

$$$$
>  <compound>
O=C(NC1CCCC1)NC1CCc2[nH]c(=O)ccc2C1 (centres undefined)

>  <INHIBITION [%]>
34.9

$$$$
>  <compound>
Cc1noc(C)c1CN1C[C@@H](N(C)Cc2ccco2)[C@H]2OCCC[C@H]21

>  <INHIBITION [%]>
20.6

$$$$
>  <compound>
Cn1ccc(N2CCCC(NC(=O)c3ccc(Cl)o3)C2=O)n1 (centres undefined)

>  <INHIBITION [%]>
-34.8

$$$$

* * *

# Test system: Plasmodium berghei
# experimental details: Screen against P. berghei liver stage (PbLuc), transformed with Luciferase, at 10uM
# Assay type: functional, HepG2
# study conditions: tested at 10 uM
Screen size: about 69,000 compounds; about 8,600 (12%) showed an effect of 50% or more. This excerpt belongs to a sample that is enriched for strong results.

>  <compound>
COc1nn(C)c2c1CCCN(C(=O)c1cccc3cccnc13)C2

>  <test target>
Plasmodium berghei

>  <INHIBITION [%]>
14

$$$$
>  <compound>
O=C(c1ccc(Cl)s1)N1CCC2(CNS(=O)(=O)c3cnccc3O2)C1 (centres undefined)

>  <test target>
Plasmodium berghei

>  <INHIBITION [%]>
21.7

$$$$
>  <compound>
O=C(NCC1CC1)[C@@H]1CCO[C@@H]2CCN(Cc3ccc(F)cc3)C[C@H]21

>  <test target>
Plasmodium berghei

>  <INHIBITION [%]>
-10.3

$$$$
>  <compound>
c1nc2c(c(NC3COC4(CCCC4)C3)n1)CCNCC2 (centres undefined)

>  <test target>
Plasmodium berghei

>  <INHIBITION [%]>
37.7

$$$$

* * *

# System: Plasmodium berghei
# experimental details: Screen against P. berghei liver stage (PbLuc), transformed with Luciferase, at 10uM
# Format: functional, HepG2
# study conditions: tested at 10 uM
Among all 69,000 compounds or so, about 8,600 (12%) showed an effect of 50% or more. This excerpt belongs to a sample that is enriched for strong results.

>  <compound>
N#Cc1cccc(OCc2ccoc2C(=O)N2CCCCCC2)c1

>  <unit tag>
%

>  <INHIBITION>
5.91

$$$$
>  <compound>
COCCCNc1ncnc2c1CCN(C(=O)CC1C=CCC1)CC2 (stereo unspecified)

>  <unit tag>
%

>  <INHIBITION>
48.2

$$$$
>  <compound>
Cc1nc(-c2ccoc2)n(CC(=O)NCC(C)C)c1C

>  <unit tag>
%

>  <INHIBITION>
-8.28

$$$$
>  <compound>
COc1ccc(C2=CCN(C(=O)C3CCS(=O)(=O)C3)CC2)cc1 (stereo unspecified)

>  <unit tag>
%

>  <INHIBITION>
59.4

$$$$
>  <compound>
CCCC(=O)NCCc1nc(N(C)C)ncc1-c1ccncc1

>  <unit tag>
%

>  <INHIBITION>
1.2

$$$$
>  <compound>
CSCc1cc(C(=O)NC2(C#N)CCSC2)ccc1F (stereo unspecified)

>  <unit tag>
%

>  <INHIBITION>
-77.6

$$$$
>  <compound>
COc1cc(CNc2cnn(CC(F)F)c2)ccc1O

>  <unit tag>
%

>  <INHIBITION>
21.9

$$$$
>  <compound>
COc1ccc(C2=CCN(C(=O)CN(C)CC(C)C#N)CC2)cc1 (stereo unspecified)

>  <unit tag>
%

>  <INHIBITION>
46.5

$$$$
>  <compound>
CCc1nc(CNc2cc(C)nc(-c3cccnc3)n2)cs1

>  <unit tag>
%

>  <INHIBITION>
54.9

$$$$
>  <compound>
O=C([C@H]1CCCO1)N1CC[C@H](O)[C@@H]1Cc1cccnc1

>  <unit tag>
%

>  <INHIBITION>
39.4

$$$$
>  <compound>
O=C(c1ccco1)N1CCCC(c2cc(C(F)F)n3ncnc3n2)C1 (stereo unspecified)

>  <unit tag>
%

>  <INHIBITION>
14.8

$$$$
>  <compound>
CCn1cncc1CN(Cc1ccc(OC)cc1OC)CC1CCCO1 (stereo unspecified)

>  <unit tag>
%

>  <INHIBITION>
41.2

$$$$
>  <compound>
COc1ccc(CN(Cc2cncn2C)CC2CCCO2)c(OC)c1 (stereo unspecified)

>  <unit tag>
%

>  <INHIBITION>
50

$$$$
>  <compound>
N#CCc1ccc(NC(=O)N[C@H](CO)Cc2ccc(O)cc2)cc1

>  <unit tag>
%

>  <INHIBITION>
11.6

$$$$
>  <compound>
COc1ccc2c(c1)C(C(=O)NCCCN1CCN(C)CC1)CC(=O)N2 (stereo unspecified)

>  <unit tag>
%

>  <INHIBITION>
26

$$$$
>  <compound>
Cc1nc(-c2ccoc2)n(CC(=O)N(C)CC(C)C)c1C

>  <unit tag>
%

>  <INHIBITION>
50

$$$$
>  <compound>
Cc1ccsc1CN(CCCO)Cc1nc2ccccc2[nH]1

>  <unit tag>
%

>  <INHIBITION>
23.2

$$$$
>  <compound>
COCCO[C@@H]1CCN(Cc2csc(C)n2)[C@H]1Cc1ccccc1

>  <unit tag>
%

>  <INHIBITION>
18.1

$$$$
>  <compound>
COc1cccc(C(=O)N2CCc3ncnc(C)c3CC2)c1

>  <unit tag>
%

>  <INHIBITION>
-34.9

$$$$
>  <compound>
CC(=O)NCCNC(=O)c1ccc(C)c(-n2cccc2)c1

>  <unit tag>
%

>  <INHIBITION>
10.7

$$$$
>  <compound>
O=C(c1ccncc1)N1CCCC(c2cc(C(F)F)n3ncnc3n2)C1 (stereo unspecified)

>  <unit tag>
%

>  <INHIBITION>
35.2

$$$$
>  <compound>
COc1cccc(C(=O)N2CCN(C(=O)CCn3ccnc3)CC2)c1

>  <unit tag>
%

>  <INHIBITION>
55

$$$$
>  <compound>
COc1cccc(CC(=O)N2CCc3ncnc(NC(C)C)c3CC2)c1

>  <unit tag>
%

>  <INHIBITION>
-4.55

$$$$
>  <compound>
CCOC1Sc2nnc(C)n2N=C1c1ccc(Cl)cc1 (stereo unspecified)

>  <unit tag>
%

>  <INHIBITION>
31.8

$$$$
>  <compound>
Cc1cccc(COC2COC3(CCN(Cc4ccoc4)CC3)C2)n1 (stereo unspecified)

>  <unit tag>
%

>  <INHIBITION>
11.4

$$$$
>  <compound>
CN1CCN(c2ncnc3c2CCN(S(=O)(=O)C2CC2)CC3)CC1

>  <unit tag>
%

>  <INHIBITION>
29.4

$$$$
>  <compound>
COc1cccc(C)c1C(=O)N1CCc2ncnc(NCCO)c2CC1

>  <unit tag>
%

>  <INHIBITION>
27.6

$$$$
>  <compound>
COc1cccc(CC(=O)N2CCc3ncnc(C)c3CC2)c1

>  <unit tag>
%

>  <INHIBITION>
61.5

$$$$
>  <compound>
COc1ccc(C2=CCN(C(=O)CN(C)CC(N)=O)CC2)cc1

>  <unit tag>
%

>  <INHIBITION>
10.8

$$$$
>  <compound>
COc1ccc(C2=CCN(C(=O)CN(C)Cc3ccoc3)CC2)cc1

>  <unit tag>
%

>  <INHIBITION>
53.5

$$$$
>  <compound>
O=C(c1ccco1)N1CCCC(c2cc(C(F)(F)F)n3ncnc3n2)C1 (stereo unspecified)

>  <unit tag>
%

>  <INHIBITION>
60.4

$$$$
>  <compound>
c1ccc(OCc2noc3c2CN(c2ncccn2)CC3)nc1

>  <unit tag>
%

>  <INHIBITION>
24.6

$$$$
>  <compound>
CN(C)C(=O)c1n[nH]c2c1CN(Cc1ccccn1)CC2

>  <unit tag>
%

>  <INHIBITION>
-27

$$$$
>  <compound>
Cc1cc(NCCc2nnc(N)s2)nc(-c2cccnc2)n1

>  <unit tag>
%

>  <INHIBITION>
16.7

$$$$
>  <compound>
CC(C)C(=O)N1CCCC(c2cc(C(F)F)n3ncnc3n2)C1 (stereo unspecified)

>  <unit tag>
%

>  <INHIBITION>
39.8

$$$$
>  <compound>
COc1ccc(C2=CCN(C(=O)C3CCC3)CC2)cc1

>  <unit tag>
%

>  <INHIBITION>
-6.44

$$$$
